Measured values drawn from ChEMBL document CHEMBL4879553 for this set.

# experimental.target: Muscarinic acetylcholine receptor M1 (Homo sapiens)
# Sequence (P11229 whole entry): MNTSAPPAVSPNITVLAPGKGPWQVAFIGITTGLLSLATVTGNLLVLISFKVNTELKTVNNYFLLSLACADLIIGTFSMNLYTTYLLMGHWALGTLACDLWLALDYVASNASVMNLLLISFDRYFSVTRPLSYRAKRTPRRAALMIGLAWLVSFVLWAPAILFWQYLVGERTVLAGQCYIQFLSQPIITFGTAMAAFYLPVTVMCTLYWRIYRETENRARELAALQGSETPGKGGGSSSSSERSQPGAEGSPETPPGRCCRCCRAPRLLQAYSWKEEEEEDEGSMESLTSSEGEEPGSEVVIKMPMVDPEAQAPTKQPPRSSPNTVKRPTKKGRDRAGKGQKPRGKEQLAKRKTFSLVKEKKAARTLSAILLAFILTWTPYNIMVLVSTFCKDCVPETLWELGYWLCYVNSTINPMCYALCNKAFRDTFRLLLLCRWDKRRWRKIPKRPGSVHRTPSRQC
# experiment.notes: GPCRScan assay: inhibition of M1
# Parameters: radioligand conc. used [nm] 0.3 – 1.2, parental cells stable CHO
# study.conditions: read-out: Ki
reported.endpoint: Ki (µM)
// return numeric value only (unit: µM, not printed)

Form field: reported Ki of `NC(=O)c1ccc2nc(-c3ccc(C4(N)CCC4)cc3)c(-c3ccccc3)n2n1`
1.45
